Where do the numbers come from? From patent US20090081197A1.

# test system: T1, MC1-R of B-16 mouse melanoma cells (mouse, UniProt Q01727 1-315)
# T1 construct: whole, on cells; also called B16-F10 (MC1-R)
# T1 sequence (Q01727 whole entry): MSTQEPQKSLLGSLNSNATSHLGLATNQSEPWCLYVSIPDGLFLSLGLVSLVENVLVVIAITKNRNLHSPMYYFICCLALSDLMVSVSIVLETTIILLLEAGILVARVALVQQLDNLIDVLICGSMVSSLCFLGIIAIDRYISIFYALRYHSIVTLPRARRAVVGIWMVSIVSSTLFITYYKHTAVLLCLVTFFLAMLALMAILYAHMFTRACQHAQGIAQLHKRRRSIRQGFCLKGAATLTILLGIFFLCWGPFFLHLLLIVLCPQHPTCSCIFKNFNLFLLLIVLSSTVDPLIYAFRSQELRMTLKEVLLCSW
# assay procedure: radioligand competition, [I125]-NDP-α-MSH, B-16 membranes
Positions of bridges follow the written chain, without caps; N, C: chain ends. Non-standard residues stand in square brackets, D forms with d.
property name: pKi
Just the number, please; pKi means minus log10 of the concentration in mol/L.

Entry Ac-DH[dF]RWK-NHEt (lactam 1-6, also called Compound No. 40) [Ac-cyclo(-Asp-His-D-Phe-Arg-Trp-Lys)-NH-CH2-CH3] ; pKi = 8.30
